# Tested on: U2OS
# assay_info: Multiplex assay against U2OS
# Type: toxicity, cell-based
# assay_setup: human, 12 h, 10 µM, compound concentration 10 uM, replicate 2
Tag: Y if measured Population Mitochondria Different-Phenotype (%) is not below 30%, N if it is.

> print(dat)
                                   molecule  target.under.test  class.assignment
1  C=CC(=O)Nc1cccc(Sc2nc(Nc3ccc(N4CCN(C)CC4)cc3)ncc2Cl)c1               U2OS                 N
2  Cc1c[nH]c2nccc(Oc3c(F)cc(Nc4cc(Cl)nc(N)n4)cc3F)c12               U2OS                 N
3  CC(C)c1noc(N2CCC(COc3ccc(-c4ccc(S(C)(=O)=O)cc4)nc3)CC2)n1               U2OS                 N
4  Cc1cccc(CN2CCN(C(c3ccccc3)c3ccc(Cl)cc3)CC2)c1.Cl.Cl (stereo not drawn)               U2OS                 Y

Has `CC(C)(C)NC[C@H](O)COc1nsnc1N1CCOCC1` a recorded Population Mitochondria Different-Phenotype (%) greater than or equal to 30%?
N

Has `CCCSc1nc(N[C@@H]2C[C@H]2c2ccc(F)c(F)c2)c2nnn([C@@H]3C[C@H](OCCO)[C@@H](O)[C@H]3O)c2n1` a recorded Population Mitochondria Different-Phenotype (%) greater than or equal to 30%?
Y

Has `CC(C)CC(=O)Nc1[nH]nc2c1CN(C(=O)C1CCN(C)CC1)C2(C)C` a recorded Population Mitochondria Different-Phenotype (%) greater than or equal to 30%?
Y

Has `C=CC(=O)Nc1ccc2[nH]c(=O)n(C3CCN(Cc4ccc(-c5nc6cc[nH]c(=O)c6cc5-c5ccccc5)cc4)CC3)c2c1` a recorded Population Mitochondria Different-Phenotype (%) greater than or equal to 30%?
N
